Listed molecules paired with reported Kd
Target: L1L2 (Enterococcus faecalis, UniProt P37710)
Sequence (P37710 338-475): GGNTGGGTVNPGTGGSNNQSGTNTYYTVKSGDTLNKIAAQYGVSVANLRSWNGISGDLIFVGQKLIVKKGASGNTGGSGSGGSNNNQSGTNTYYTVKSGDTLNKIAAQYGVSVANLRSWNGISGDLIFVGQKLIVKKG
Test: Steady-state SPR
Assay type: binding
Conditions: SD
measured_quantity: Kd (µM)

[[record]]
molecule = "CC(=O)N[C@H]1[C@H](O[C@H]2[C@H](O)[C@@H](NC(C)=O)C(O)O[C@@H]2CO)O[C@H](CO)[C@@H](O[C@@H]2O[C@H](CO)[C@@H](O)[C@H](O)[C@H]2NC(C)=O)[C@@H]1O (stereo partly shown)"
result_units = "µM"
reported_measurement = 678

[[record]]
molecule = "CC(=O)N[C@H]1[C@H](O[C@H]2[C@H](O)[C@@H](NC(C)=O)[C@H](O[C@H]3[C@H](O)[C@@H](NC(C)=O)C(O)O[C@@H]3CO)O[C@@H]2CO)O[C@H](CO)[C@@H](O[C@@H]2O[C@H](CO)[C@@H](O[C@@H]3O[C@H](CO)[C@@H](O[C@@H]4O[C@H](CO)[C@@H](O)[C@H](O)[C@H]4NC(C)=O)[C@H](O)[C@H]3NC(C)=O)[C@H](O)[C@H]2NC(C)=O)[C@@H]1O (stereo partly shown)"
result_units = "µM"
reported_measurement = 5

[[record]]
molecule = "CC(=O)N[C@H]1[C@H](O[C@H]2[C@H](O)[C@@H](NC(C)=O)[C@H](O[C@H]3[C@H](O)[C@@H](NC(C)=O)C(O)O[C@@H]3CO)O[C@@H]2CO)O[C@H](CO)[C@@H](O[C@@H]2O[C@H](CO)[C@@H](O[C@@H]3O[C@H](CO)[C@@H](O)[C@H](O)[C@H]3NC(C)=O)[C@H](O)[C@H]2NC(C)=O)[C@@H]1O (stereo partly shown)"
result_units = "µM"
reported_measurement = 9.6

[[record]]
molecule = "CC(=O)N[C@H]1[C@H](O[C@H]2[C@H](O)[C@@H](NC(C)=O)C(O)O[C@@H]2CO)O[C@H](CO)[C@@H](O[C@@H]2O[C@H](CO)[C@@H](O[C@@H]3O[C@H](CO)[C@@H](O)[C@H](O)[C@H]3NC(C)=O)[C@H](O)[C@H]2NC(C)=O)[C@@H]1O (stereo partly shown)"
result_units = "µM"
reported_measurement = 38.1

